procedure.summary: Protein binding in human plasma after 20 mins by ultra-filtration method
Type: ADME, cell-free
condition.label: read-out: PPB (converted)
readout: fraction unbound at 20 min
Write the value as a bare number.

[
  {
    "compound": "O=C(CC(O)c1cc(Cl)ccc1O)NO (configuration not stated)",
    "readout.value": 0.472
  }
]

Consider now this further compound.
Exam item: Please report fraction unbound at 20 min for the following compound: O=C(CC(O)c1cc(Cl)ccc1OCc1ccccc1)NO (configuration not stated)
Marked response: 0.626

###

Attribute: fraction unbound at 20 min
procedure.summary: Protein binding in rabbit plasma after 20 mins by ultra-filtration method
Type: ADME, cell-free, Oryctolagus cuniculus
condition.label: read-out: PPB (converted)
Write the value as a bare number.

[
  {
    "compound": "O=C(CC(O)c1cc(Cl)ccc1OCc1ccccc1)NO (configuration not stated)",
    "fraction unbound at 20 min": 0.562
  }
]

Consider now this further compound.
Exam item: Please report fraction unbound at 20 min for the following compound: O=C(CC(O)c1cc(Cl)ccc1O)NO (configuration not stated)
Marked response: 0.548
